Answer each item with its documented drug sensitivity score.
System: HSC2 (primary human Schwann cells)
Experiment: drug sensitivity score (DSS, CellTox-Green cytotoxicity, 72 h) (DSS (dimensionless)); higher = more cytotoxic; extreme values may be limits of the assay
Number only, please.

drug sensitivity score in this record for Nc1nc(F)nc2c1ncn2[C@@H]1O[C@H](CO)[C@@H](O)[C@@H]1O [Fludarabine] (max concentration tested 10000 nM) : 0

// field: drug sensitivity score; key: Cc1c(N)nc([C@H](CC(N)=O)NC[C@H](N)C(N)=O)nc1C(=O)N[C@H](C(=O)N[C@H](C)[C@@H](O)[C@H](C)C(=O)N[C@H](C(=O)NCCc1nc(-c2nc(C(=O)NCCC[S+](C)C)cs2)cs1)[C@@H](C)O)[C@@H](O[C@@H]1O[C@@H](CO)[C@@H](O)[C@H](O)[C@@H]1O[C@H]1O[C@H](CO)[C@@H](O)[C@H](OC(N)=O)[C@@H]1O)c1c[nH]cn1 [Bleomycin] (max concentration tested 10000 nM) ; value = 1.66

Reported drug sensitivity score of C[C@]12C=CC(=O)C=C1CC[C@@H]1[C@@H]2[C@@H](O)C[C@@]2(C)[C@H]1CC[C@]2(O)C(=O)CO [Prednisolone] (max concentration tested 10000 nM) : 0

Given item Nc1nc2[nH]cnc2c(=S)[nH]1 [Thioguanine] (max concentration tested 10000 nM) , the value recorded as its drug sensitivity score is 0

---

Test system: HSC2 (primary human Schwann cells)
Experiment: drug sensitivity score (DSS, CellTox-Green cytotoxicity, 72 h) (DSS (dimensionless)); higher = more cytotoxic; extreme values may be limits of the assay
Consider the following compounds; for each one, report its drug sensitivity score.

Entry CC(C)C(=O)Nc1ccc([N+](=O)[O-])c(C(F)(F)F)c1 [Flutamide] (max concentration tested 10000 nM) ; drug sensitivity score = 0

Looking up COc1ccccc1S(=O)(=O)Nc1ccc2c(c1)CN(C)C(=O)N2 [PFI-1] (max concentration tested 10000 nM) , I found its drug sensitivity score recorded as 0

# drug sensitivity score of Nc1ncnc2c1nc(Cl)n2[C@@H]1O[C@H](CO)[C@@H](O)[C@H]1O [8-chloro-adenosine] (max concentration tested 50000 nM) = 0

Entry under test: Clc1ccc(C(c2ccccc2Cl)C(Cl)Cl)cc1 (stereo unspecified) [Mitotane] (max concentration tested 10000 nM) . Its drug sensitivity score was 0

Entry NC(=O)c1cccc2cn(-c3ccc(C4CCCNC4)cc3)nc12 (stereo unspecified) [MK-4827] (max concentration tested 10000 nM) — recorded drug sensitivity score = 0

Entry C=CCn1c(=O)c2cnc(Nc3ccc(N4CCN(C)CC4)cc3)nc2n1-c1cccc(C(C)(C)O)n1 [MK1775] (max concentration tested 10000 nM) ; drug sensitivity score = 9.17

---

Tested on: STS26T
Test: relative IC50 (inflection point of fitted dose-response curve, CellTox-Green cytotoxicity, 72 h; top asymptote may be below 50%); higher = less potent
reported_endpoint: relative IC50 (µM)
Please give a number only; it is taken to be in µM.

For reference, reported relative IC50 for `CC[C@@]1(O)C(=O)OCc2c1cc1n(c2=O)Cc2cc3c(CN(C)C)c(O)ccc3nc2-1` stands at 0.197

Documented relative IC50 of `COc1cc2c(NC3CCN(C(C)C)CC3)nc(C3CCCCC3)nc2cc1OCCCN1CCCC1` : 3.39

# relative IC50 of `C=CC(=O)Nc1cc2c(Nc3ccc(F)c(Cl)c3)ncnc2cc1OCCCN1CCOCC1` = 2.7

The reported relative IC50 of the compound `CN(C)C[C@@H]1CCn2cc(c3ccccc32)C2=C(C(=O)NC2=O)c2cn(c3ccccc23)CCO1` was 2.43

---

Can you tell me drug sensitivity score for the items I'm about to list?
Test system: HSC2 (primary human Schwann cells)
Experiment: drug sensitivity score (DSS, CellTox-Green cytotoxicity, 72 h) (DSS (dimensionless)); higher = more cytotoxic; extreme values may be limits of the assay
The answer should be a number; do not append a unit.

O=C(Nc1c[nH]nc1-c1nc2ccc(CN3CCOCC3)cc2[nH]1)NC1CC1 [AT9283] (max concentration tested 1000 nM) yielded drug sensitivity score of 5.2

drug sensitivity score reported for this compound Nc1nc(Cl)nc2c1ncn2[C@@H]1O[C@H](CO)[C@@H](O)[C@@H]1F [Clofarabine] (max concentration tested 10000 nM) : 15.8

Lookup result for CCC1(c2ccc(N)cc2)CCC(=O)NC1=O (stereo not drawn) [Aminoglutethimide] (max concentration tested 10000 nM) ; measured drug sensitivity score: 0

Entry CO[C@H]1C[C@@H]2CC[C@@H](C)[C@@](O)(O2)C(=O)C(=O)N2CCCC[C@H]2C(=O)O[C@H]([C@H](C)C[C@@H]2CC[C@@H](OCCO)[C@H](OC)C2)CC(=O)[C@H](C)/C=C(\C)[C@@H](O)[C@@H](OC)C(=O)[C@H](C)C[C@H](C)/C=C/C=C/C=C/1C [Everolimus] (max concentration tested 100 nM) — recorded drug sensitivity score = 0

Per the record, Cn1nnc2c(C(N)=O)ncn2c1=O [Temozolomide] (max concentration tested 10000 nM) has drug sensitivity score of 0

drug sensitivity score in this record for CCCS(=O)(=O)Nc1ccc(F)c(C(=O)c2c[nH]c3ncc(-c4ccc(Cl)cc4)cc23)c1F [Vemurafenib] (max concentration tested 10000 nM) : 0

Noted for CC(=O)N(O)CCCCCNC(=O)CCC(=O)N(O)CCCCCNC(=O)CCC(=O)N(O)CCCCCN [Deferoxamine aq] (max concentration tested 10000 nM) : its drug sensitivity score reads 0

Record C=CC[C@@H]1/C=C(\C)C[C@H](C)C[C@H](OC)[C@H]2O[C@@](O)(C(=O)C(=O)N3CCCC[C@H]3C(=O)O[C@H](/C(C)=C/[C@@H]3CC[C@@H](O)[C@H](OC)C3)[C@H](C)[C@@H](O)CC1=O)[C@H](C)C[C@@H]2OC [Tacrolimus] (max concentration tested 10000 nM) , field drug sensitivity score: 0

Kindly note the recorded drug sensitivity score for S=P(N1CC1)(N1CC1)N1CC1 [Thio-TEPA] (max concentration tested 50000 nM) , which is 0

The recorded drug sensitivity score for entry COc1cc2c(cc1O)CC[C@@H]1[C@@H]2CC[C@]2(C)[C@@H](O)CC[C@@H]12 [2-methoxyestradiol] (max concentration tested 10000 nM) equals 3.98

The reported value for NC(=O)NO [Hydroxyurea] (max concentration tested 100000 nM) in terms of drug sensitivity score is 0

For this compound ( Cc1cc(Nc2cc(CN3CCOCC3)c3nc(C)c(Cc4ccc(Cl)cc4F)n3n2)n[nH]1 [Gandotinib] (max concentration tested 10000 nM) ), measured drug sensitivity score is 7.38

Given item N[C@@H](CSC(c1ccccc1)(c1ccccc1)c1ccccc1)C(=O)O [S-trityl-L-cysteine] (max concentration tested 40000 nM) , the value recorded as its drug sensitivity score is 0

The value of drug sensitivity score measured for the compound O=C(O)CC[C@H]1CC[C@@](c2cc(F)ccc2F)(S(=O)(=O)c2ccc(Cl)cc2)CC1 [MK-0752] (max concentration tested 1000 nM) turned out to be 0

Entry under test: CCc1cnn2c(NCc3ccc[n+]([O-])c3)cc(N3CCCC[C@H]3CCO)nc12 [Dinaciclib] (max concentration tested 1000 nM) . Its drug sensitivity score was 7.57

The measured drug sensitivity score associated with CNC(=O)c1cc(Oc2ccc(NC(=O)Nc3ccc(Cl)c(C(F)(F)F)c3)c(F)c2)ccn1 [Regorafenib] (max concentration tested 10000 nM) reads 0

The value of drug sensitivity score measured for the compound CN(N=O)C(=O)N[C@@H]1[C@@H](O)[C@H](O)[C@@H](CO)O[C@@H]1O [Streptozocin] (max concentration tested 10000 nM) turned out to be 0

The recorded drug sensitivity score for Nc1ncn([C@@H]2O[C@H](CO)[C@@H](O)[C@H]2O)c(=O)n1 [Azacitidine] (max concentration tested 10000 nM) is 0

Query Cc1c(Cn2c(C)nc3c(C(=O)O)cc(N4CCOCC4)cc32)cccc1C(F)(F)F (max concentration tested 10000 nM) yields drug sensitivity score of 0

drug sensitivity score in this record for COc1ccc(C2=N[C@@H](c3ccc(Cl)cc3)[C@@H](c3ccc(Cl)cc3)N2C(=O)N2CCNC(=O)C2)c(OC(C)C)c1 [Nutlin-3] (max concentration tested 10000 nM) : 0

Notebook: CN1CCN(CCOc2cc(OC3CCOCC3)c3c(Nc4c(Cl)ccc5c4OCO5)ncnc3c2)CC1 [Saracatinib] (max concentration tested 10000 nM) , drug sensitivity score read as 6.91

The compound listed as CCn1c(-c2nonc2N)nc2cnc(Oc3cccc(NC(=O)c4ccc(OCCN5CCOCC5)cc4)c3)cc21 (max concentration tested 10000 nM) has a reported drug sensitivity score of 0.268

The recorded drug sensitivity score for N[C@@H](Cc1ccc(N(CCCl)CCCl)cc1)C(=O)O [Melphalan aq] (max concentration tested 12500 nM) is 0

Data origin, for the record: the supplement of paper PMC5579334
